Numbers sourced from patent US11261186B2.

Quick reference: EC50 of the listed items.
Tested Target: UniProt:Q5NUL3
Test Protocol: Measurement of Activity of GPR120 Agonist (Cell-Based Assay), Calcium 5 dye fluorescence
Test Parameters: CHO-K1 cells expressing Ga16 and hGPR120
Readout Label: EC50

                                   molecule  recorded_value
0  O=C(O)CC1CCN(c2c(F)cc(-c3cncc(Oc4ccc(F)cc4)n3)cc2F)CC1        < 200 nM
1     O=C(O)CCCCc1ccc(-c2cccnc2SC2CCC2)cc1F        < 200 nM
2  O=C(O)CCCOc1c(F)cc(-n2ccc3cc(F)ccc32)cc1F        < 200 nM
3  O=C(O)C1CC1CNc1c(F)cc(-c2cccnc2SC2CCCC2)cc1F (stereo not drawn)        < 200 nM
4  O=C(O)CC1CCN(c2c(F)cc(-c3cccc(C(=O)C4CC4)n3)cc2F)CC1  200 to 2000 nM
5  CCOc1cncc(-c2cc(F)c(OCCCC(=O)O)c(Cl)c2)n1        < 200 nM
6  C[C@@H](CCCC(=O)O)c1c(F)cc(-c2cccnc2SC2CCC2)cc1F        < 200 nM
7  CC(C)Sc1ncccc1-c1cc(F)c2c(c1)CCC(CCC(=O)O)S2 (stereo not drawn)  200 to 2000 nM
8  CC(C)Sc1ncccc1-c1cc(F)c(N2CCC(CC(=O)O)CC2)c(F)c1        < 200 nM

###

Tested Target: hGPR120 (Homo sapiens)
Sequence (Q5NUL3 1-361): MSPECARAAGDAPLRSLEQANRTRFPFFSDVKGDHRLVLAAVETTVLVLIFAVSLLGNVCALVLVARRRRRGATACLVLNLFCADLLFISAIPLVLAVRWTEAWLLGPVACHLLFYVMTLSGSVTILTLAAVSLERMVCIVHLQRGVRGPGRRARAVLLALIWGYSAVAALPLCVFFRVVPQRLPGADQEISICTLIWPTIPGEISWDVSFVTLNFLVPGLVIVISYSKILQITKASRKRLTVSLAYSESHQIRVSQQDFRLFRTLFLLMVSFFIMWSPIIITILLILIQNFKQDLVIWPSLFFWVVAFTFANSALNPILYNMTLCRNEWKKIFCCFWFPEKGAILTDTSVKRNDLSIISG
Test Protocol: Measurement of Activity of GPR120 Agonist (Cell-Based Assay), Calcium 5 dye fluorescence
Test Parameters: CHO-K1 cells expressing Ga16 and hGPR120
pEC50: −log10 of the molar value.
Readout Label: pEC50

>>> df
                                   molecule  recorded_value
0  COc1ccc(-c2cc(F)c(N(C)CCCC(=O)O)c(F)c2)c2c1OC(C)(C)C2          > 6.70
1  Oc1cc(COc2c(F)cc(-c3cccnc3OCC3CCC3)cc2F)on1          > 6.70
2  O=C(O)CC1CCN(c2c(F)cc(-c3nccc(Oc4ccccc4)n3)cc2F)CC1          > 6.70
3  CC(C)(CCCC(=O)O)c1ccc(-c2cccnc2OC2CCCC2)cc1F    5.70 to 6.70
4  O=C(O)CCCOc1c(F)cc(-c2ccc(F)c(OCC3CC3)c2)cc1Cl          > 6.70
5  CC(C)Sc1ncccc1-c1cc(F)c(NCCCCC(=O)O)c(F)c1          > 6.70
6  O=C(O)CCCC(F)(F)c1ccc(-c2cccc(OC3CCC3)n2)cc1          > 6.70
7  CC(CCCC(=O)O)c1c(F)cc(-c2cccc3c2OC2(CCCC2)C3)cc1F (stereo not drawn)    5.70 to 6.70
8  Oc1cc(CCOc2c(F)cc(-c3cccnc3OC3CCCC3)cc2F)on1          > 6.70
